target: human GzmB (hGzmB) (Homo sapiens, UniProt P10144); construct: For active GzmB vs pro-GzmB, p < 0.0001; assay: HPLC conversion of fluorogenic peptides by hGzmB; assay type: biochemical; settings: probe 25 μM (Ac-IEPD-AMC 50 μM), TRIS buffer, 37 °C, HPLC-UV
Sequence (P10144 21-247): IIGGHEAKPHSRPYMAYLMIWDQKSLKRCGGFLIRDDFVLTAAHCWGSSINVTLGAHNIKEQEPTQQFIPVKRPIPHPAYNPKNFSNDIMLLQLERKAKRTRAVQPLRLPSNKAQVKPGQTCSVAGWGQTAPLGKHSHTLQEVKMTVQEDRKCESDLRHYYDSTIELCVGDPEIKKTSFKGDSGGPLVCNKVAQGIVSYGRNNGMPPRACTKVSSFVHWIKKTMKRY
Where no end group is shown, it is not given here.
Response key: Condition met means HPLC conversion (20 nM hGzmB, 2 h) >= 80%; Condition not met means HPLC conversion (20 nM hGzmB, 2 h) < 80%.

Kindly determine if HPLC conversion (20 nM hGzmB, 2 h) recorded for IEPDAG [H1, FRET hexapeptide IEPDAG] is above or exactly 80%. Condition not met

Values were extracted from paper PMC9061857.
